biological target: UniProt:P41146; assay: Cell-Based NOP Assay: Formula (I) compounds were tested for antagonism of the nociceptin receptor (NOP) in a cell-based cAMP assay, using the LANCE cAMP Detection Kit, Perkin Elmer (Waltham, Mass.). This assay (LANCE cAMP) is a homogeneous, time-resolved fluorescence resonance energy transfer (TR-FRET) immunoassay designed to measure cAMP produced upon modulation of adenylyl cyclase activity by G protein-coupled receptors (GPCRs).ProtocolCells expressing human opioid NOP (ValiScreen cell line, cat #ES-230-C Perkin Elmer (Waltham, Mass.) were dispensed in simulation buffer (5 mM Hepes, 0.1% BSA, 0.5 mM IBMX in Hanks Buffered Saline Solution) at 2.5 μL cells per well (400 cells/well) into a 1536 white TC-treated assay plate. Compound was then added and plates were incubated for 15 minutes at room temperature. To each well was added 2.5 μL of a solution containing forskolin (3 μM final) and nociceptin peptide (390 pM final) diluted in stimulation buffer, and the plates were incubated for 30 minutes at room temperature. To each well was dispensed 5 μL of LANCE Ultra detection (1:300 dilution of anti-cAMP ULight with a 1:100 dilution of Eu-cAMP tracer diluted in cAMP Detection Buffer) reagent, and the plates were incubated for 1 hr at room temperature. The plate was then read on the ViewLux microplate reader (Perkin Elmer, Waltham, Mass.) using the LANCE 1536 protocol with 60 second exposure times and 50 μs delay. This protocol has an excitation wavelength of 340 nm (DUG11 filter) and emission wavelengths of 615 nm (Eu-Donor) and 665 nm (Alexa 647 cAMP antibody acceptor).Data AnalysisData was analyzed, normalized, and visualized using ACAS (John McNeil & Co.). Efficacy was calculated using activity of the vehicle (DMSO) as 0% efficacy and the activity of the corresponding reference positive control (SCH 221510, Tocris Bioscience (Pittsburgh, Pa.), Catalog number 3240) as 100% efficacy. Activity was calculated as the ratio of donor and acceptor emissions. All curve fits and IC50 determinations were performed using a non-linear regression model. The IC50 value was measured as the concentration at which half-maximal response was calculated.
Sequence (P41146 whole entry): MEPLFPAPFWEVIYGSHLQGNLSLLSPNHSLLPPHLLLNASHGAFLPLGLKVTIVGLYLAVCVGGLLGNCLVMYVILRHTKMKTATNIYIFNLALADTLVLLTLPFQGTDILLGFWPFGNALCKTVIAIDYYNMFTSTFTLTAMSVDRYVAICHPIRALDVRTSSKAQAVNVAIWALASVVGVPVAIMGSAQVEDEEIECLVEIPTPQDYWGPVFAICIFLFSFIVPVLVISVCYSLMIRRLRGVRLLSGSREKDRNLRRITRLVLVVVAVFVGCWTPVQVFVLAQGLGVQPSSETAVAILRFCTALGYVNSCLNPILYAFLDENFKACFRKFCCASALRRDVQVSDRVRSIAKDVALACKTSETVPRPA
measured quantity: IC50

[
  {
    "compound": "Fc1cccc(Cl)c1C1CCC(CCNC2CCCC2)CC1 (stereo not given)",
    "IC50": "1 to 10 nM"
  },
  {
    "compound": "CNC(=O)C1(NCCC2CCC(c3ncccc3Cl)CC2)CCCC1 (stereo not given)",
    "IC50": "100 to 1000 nM"
  },
  {
    "compound": "Fc1ccc(C2CCC(CCNC3CCOCC3)CC2)c(Cl)c1 (mixture of isomers)",
    "IC50": "< 1 nM"
  }
]

Continue with the next compound.
Ask: Give me measured IC50, please, for this compound: Fc1cc(Cl)ccc1C1CCC(CCNC2CCCC2)CC1 (stereo not given)
Result: 10 to 100 nM
